compounds and their reported GI50
system: MDA-MB-231 breast; experiment: NCI tumour cell line growth inhibition, 48 h
property_label: GI50

INSERT INTO measurements (compound, experimental_target, property_label, measured_result) VALUES
  ('COc1ccc(-n2cc(-c3ccc(Cl)cc3)[nH]c2=S)cc1Cl', 'MDA-MB-231 breast', 'GI50', '22.1 µM'),
  ('COc1cc2c(cc1OC)[C@@H]1[C@H](C2=O)c2ccc([N+](=O)[O-])cc2C(=O)N1CCCBr', 'MDA-MB-231 breast', 'GI50', '1.45 µM'),
  ('COc1ccc(CNCCN2C(=O)c3ccc4c5c(ccc(c35)C2=O)C(=O)N(CCNCc2ccc(OC)cc2)C4=O)cc1', 'MDA-MB-231 breast', 'GI50', '0.294 µM'),
  ('N#CC1=C(N)NC(=S)NC1c1ccc(-c2ccc(-c3nc4ccccc4s3)cc2)o1 (centres undefined)', 'MDA-MB-231 breast', 'GI50', '16.3 µM'),
  ('O=c1cc(N2CCOCC2)oc2c(-c3ccccc3)cccc12', 'MDA-MB-231 breast', 'GI50', '5.85 µM'),
  ('O=C(NCCc1ccccc1)C(c1csc2ccccc12)N(C(=O)CCl)c1ccc(-c2cnco2)cc1 (centres undefined)', 'MDA-MB-231 breast', 'GI50', '0.226 µM'),
  ('Oc1ccc(Br)cc1CN1CCN(Cc2ccc(Cl)cc2)CC1', 'MDA-MB-231 breast', 'GI50', '17 µM'),
  ('COC(=O)c1ccc2c(c1)[n+](=O)c(C(C)=O)c(C(F)(F)F)n2[O-]', 'MDA-MB-231 breast', 'GI50', '1.98 µM'),
  ('O=C1/C(=C/c2ccc(F)cc2)CN(Cc2cn(CCNc3ccnc4cc(Cl)ccc34)nn2)C/C1=C\c1ccc(F)cc1', 'MDA-MB-231 breast', 'GI50', '1.76 µM');
